# target: T1, Dimeric human CD48-mFc (human)
# T1 chain: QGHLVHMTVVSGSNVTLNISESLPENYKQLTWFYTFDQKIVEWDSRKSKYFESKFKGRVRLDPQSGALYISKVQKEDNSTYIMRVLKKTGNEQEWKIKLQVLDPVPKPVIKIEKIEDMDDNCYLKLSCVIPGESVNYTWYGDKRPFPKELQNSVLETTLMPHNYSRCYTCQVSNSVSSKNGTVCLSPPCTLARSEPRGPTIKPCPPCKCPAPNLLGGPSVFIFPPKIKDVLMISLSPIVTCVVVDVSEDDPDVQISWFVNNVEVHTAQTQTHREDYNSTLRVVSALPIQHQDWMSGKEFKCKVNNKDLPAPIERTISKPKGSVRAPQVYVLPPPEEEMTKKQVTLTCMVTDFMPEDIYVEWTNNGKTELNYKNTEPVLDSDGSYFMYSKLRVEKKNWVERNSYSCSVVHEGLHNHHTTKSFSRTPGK
# assay_name: SPR (Biacore T100), 25 C, antibody captured by anti-Fc, dimeric CD48-mFc in solution
reported_metric: kon (M⁻¹ s⁻¹)
Value expressed in M⁻¹ s⁻¹; do not type the unit.

Measured kon of H2M1713N (antibody, mouse IgG2, V domains shown, Human variable domains, mouse IgG2 Fc (prefix H2M)) VH: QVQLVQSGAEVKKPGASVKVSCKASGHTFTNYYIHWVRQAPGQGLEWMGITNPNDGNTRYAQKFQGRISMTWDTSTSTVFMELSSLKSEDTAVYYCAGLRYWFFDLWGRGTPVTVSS VL: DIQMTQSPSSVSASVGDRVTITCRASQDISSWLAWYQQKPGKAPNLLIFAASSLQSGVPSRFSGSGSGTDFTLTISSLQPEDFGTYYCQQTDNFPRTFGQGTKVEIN : 826000

Measured kon of H4H1775P (antibody, human IgG4, V domains shown, Human IgG4 Fc (prefix H4H)) VH: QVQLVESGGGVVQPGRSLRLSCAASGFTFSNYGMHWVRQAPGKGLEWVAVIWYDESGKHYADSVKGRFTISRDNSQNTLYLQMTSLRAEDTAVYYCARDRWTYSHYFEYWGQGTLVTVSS VL: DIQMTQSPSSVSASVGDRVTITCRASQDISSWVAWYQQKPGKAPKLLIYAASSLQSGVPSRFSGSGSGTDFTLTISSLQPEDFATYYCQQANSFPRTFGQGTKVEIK : 734000

Measured kon of H4H1774P (antibody, human IgG4, V domains shown, Human IgG4 Fc (prefix H4H)) VH: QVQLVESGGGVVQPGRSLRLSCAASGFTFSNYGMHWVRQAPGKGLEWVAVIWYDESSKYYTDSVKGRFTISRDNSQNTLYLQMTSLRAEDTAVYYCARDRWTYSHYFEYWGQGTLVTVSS VL: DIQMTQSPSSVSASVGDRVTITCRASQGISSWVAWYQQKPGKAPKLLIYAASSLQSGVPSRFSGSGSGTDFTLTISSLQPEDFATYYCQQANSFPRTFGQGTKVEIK : 311000

Measured kon of H4H1781P (antibody, human IgG4, V domains shown, Human IgG4 Fc (prefix H4H)) VH: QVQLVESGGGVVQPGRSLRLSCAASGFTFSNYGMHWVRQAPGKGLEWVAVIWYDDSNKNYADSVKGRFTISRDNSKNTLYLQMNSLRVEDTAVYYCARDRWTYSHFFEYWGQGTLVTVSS VL: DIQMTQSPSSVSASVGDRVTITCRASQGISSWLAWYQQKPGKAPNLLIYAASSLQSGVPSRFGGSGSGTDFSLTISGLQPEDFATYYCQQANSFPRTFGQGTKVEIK : 854000

Measured kon of H4H1779P (antibody, human IgG4, V domains shown, Human IgG4 Fc (prefix H4H)) VH: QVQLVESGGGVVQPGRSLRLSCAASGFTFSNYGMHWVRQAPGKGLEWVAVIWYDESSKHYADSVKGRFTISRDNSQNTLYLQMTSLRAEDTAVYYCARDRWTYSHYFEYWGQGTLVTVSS VL: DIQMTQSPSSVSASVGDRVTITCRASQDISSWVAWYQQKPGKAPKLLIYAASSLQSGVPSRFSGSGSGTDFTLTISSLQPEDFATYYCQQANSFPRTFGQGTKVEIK : 774000
